# Measured On: Retinoic acid receptor alpha (Homo sapiens)
# Assay Comment: ATG_DR5_RAR_CIS: Attagene CIS-FACTORIAL HepG2 Assay for human Retinoic Acid Receptor Alpha (RARE), DR5 submotif (AID 2282934)
# Stated Conditions: HepG2 Attagene cis-factorial RARE DR5 reporter, mRNA; actives raise or lower the signal
Active and inactive are the calls of the source. The calls were made as follows: active = hit-call score of the fitted dose curve at least 0.9, where 1 is the maximum; inactive = score below 0.9.
Answer with one of the outcomes active, inactive

The examples below pair each entry with its known result.
Ask | Which outcome was assigned to `CCCCOC(=O)c1ccccc1C(=O)OCCCC` in this test?
Reply | inactive

Ask | Could you please tell me the result logged for CC1COC(Cn2cncn2)(c2ccc(Oc3ccc(Cl)cc3)cc2Cl)O1 (configuration not stated) in this assay?
Reply | inactive

Ask | Which outcome did this test record for the molecule `CC1=C(C(=O)Nc2ccccc2)SCCO1` ?
Reply | inactive

Ask | Please share the test call associated with `O=C(O)COc1nc(Cl)c(Cl)cc1Cl` .
Reply | inactive

Ask | Per the assay record, what outcome was assigned to `CC(C)Oc1cc(-n2nc(C(C)(C)C)oc2=O)c(Cl)cc1Cl` ?
Reply | active

New cases:
Ask | Just curious, what result did `CS/C(C)=N/OC(=O)N(C)SN(C)C(=O)O/N=C(\C)SC` get here?
Reply | inactive

Ask | Record request — test call for N#CC(CCc1ccc(Cl)cc1)(Cn1cncn1)c1ccccc1 (configuration not stated)
Reply | inactive

Ask | For C#CCOS(=O)OC1CCCCC1Oc1ccc(C(C)(C)C)cc1 (configuration not stated) , what call appears in the results of this test?
Reply | inactive
